study_target: human LAG3 expressed on cells (human) (UniProt P18627)
Sequence (P18627 23-525): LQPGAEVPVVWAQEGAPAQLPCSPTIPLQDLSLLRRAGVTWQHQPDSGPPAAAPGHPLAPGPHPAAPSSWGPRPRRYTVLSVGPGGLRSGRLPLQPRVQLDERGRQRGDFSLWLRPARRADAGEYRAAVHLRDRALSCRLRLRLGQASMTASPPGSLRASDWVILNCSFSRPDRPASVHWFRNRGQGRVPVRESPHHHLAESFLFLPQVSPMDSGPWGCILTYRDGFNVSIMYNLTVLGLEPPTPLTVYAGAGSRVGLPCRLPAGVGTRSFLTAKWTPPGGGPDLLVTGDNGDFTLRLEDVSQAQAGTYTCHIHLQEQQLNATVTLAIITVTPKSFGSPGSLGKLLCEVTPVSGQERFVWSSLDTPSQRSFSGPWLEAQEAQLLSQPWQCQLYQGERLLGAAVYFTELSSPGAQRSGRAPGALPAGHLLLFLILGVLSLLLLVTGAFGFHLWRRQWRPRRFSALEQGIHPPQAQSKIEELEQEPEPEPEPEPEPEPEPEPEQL
measurement_description: cell-based or functional assay

binder	IL-2, % of BMS, at 0.001016105 ug/mL / %
sdAb fusion 25-27-2 (Fc fusion, not shown: a dimerising Fc or GST) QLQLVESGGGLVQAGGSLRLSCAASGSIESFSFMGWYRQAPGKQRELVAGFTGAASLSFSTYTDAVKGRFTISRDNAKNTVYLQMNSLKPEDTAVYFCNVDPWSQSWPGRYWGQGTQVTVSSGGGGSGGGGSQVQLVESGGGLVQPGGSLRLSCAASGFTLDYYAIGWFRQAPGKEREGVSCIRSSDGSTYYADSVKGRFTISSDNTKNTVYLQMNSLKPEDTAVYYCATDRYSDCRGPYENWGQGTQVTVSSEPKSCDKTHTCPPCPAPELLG	0.0147
